Attribution: patent US8124634B2

# ASSAYED_SYSTEM: human CB1 receptor (Homo sapiens)
# Construct: membranes
# Sequence (P21554 whole entry): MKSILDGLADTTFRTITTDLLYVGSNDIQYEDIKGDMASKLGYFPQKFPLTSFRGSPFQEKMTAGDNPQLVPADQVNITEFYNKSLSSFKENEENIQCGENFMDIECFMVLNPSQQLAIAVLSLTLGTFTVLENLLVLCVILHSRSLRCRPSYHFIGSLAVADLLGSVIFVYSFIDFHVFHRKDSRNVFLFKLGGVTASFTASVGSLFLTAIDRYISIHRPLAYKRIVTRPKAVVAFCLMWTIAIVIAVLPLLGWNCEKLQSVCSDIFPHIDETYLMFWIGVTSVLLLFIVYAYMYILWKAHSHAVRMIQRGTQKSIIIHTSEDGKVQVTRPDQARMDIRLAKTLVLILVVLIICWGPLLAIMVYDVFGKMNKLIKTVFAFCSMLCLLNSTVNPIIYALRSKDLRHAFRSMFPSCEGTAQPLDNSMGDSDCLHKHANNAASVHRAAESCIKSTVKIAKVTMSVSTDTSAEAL
# PROTOCOL_DETAILS: Cannabinoid Receptor-1 functional assay: inhibition of CP55940-induced [35S]GTPγS binding to membranes of CHO-K1 cells expressing human CB1
# MEASUREMENT_CONTEXT: 3 nM CP55940, hCB1 membranes, [35S]GTPγS SPA; read-out: IC50 value for antagonizing a CB1 receptor agonist
Attribute: IC50

> print(dat)
                                   molecule                     assayed.system  measured.value
1  CC(C)(Cc1ccc(F)cc1)NC(=O)c1nn(-c2ccccc2Cl)c(-c2ccc(Cl)cc2)c1Cc1nn[nH]n1 [[2.5]]  human CB1 receptor (Homo sapiens)        < 300 nM
2  CC(NC(=O)c1nn(-c2ccccc2Cl)c(-c2ccc(Cl)cc2)c1Cc1nnn[nH]1)c1ccc(C(F)(F)F)c(F)c1 (stereo not shown) [[2.10]]  human CB1 receptor (Homo sapiens)        < 300 nM
3  C[C@H](c1ccc(OC(F)(F)F)cc1)N(C)C(=O)c1nn(-c2ccccc2Cl)c(-c2ccc(Cl)cc2)c1CC(=O)O [[1.9]]  human CB1 receptor (Homo sapiens)        < 300 nM

Asked: Quick check: IC50 of C[C@@H](NC(=O)c1nn(-c2ccccc2Cl)c(-c2ccc(Cl)cc2)c1Cc1nn[nH]n1)c1ccc(Cl)c(Cl)c1 [[2.22]] ?
Given back: < 300 nM
